Measured values drawn from the supplement of paper PMC10567573 for this set.

B1: PTPN9 (parent)
chain: IDFLRVVRNQQSLAVSNMGARSKG

- Variants of: B1
- assay-method-text: protein stability index of a GFP-peptide fusion (GPS, HEK-293T) (PSI 1-6); higher = more stable;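 also: lentivirally expressed fusions sorted by FACS into six bins by GFP to DsRed ratio, PSI derived from sequencing read proportions per bin multiplied by bin number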
- test-context: c terminus: a fixed tail appended
observation-type: protein stability index
// no unit string in output, number only

Input line: Return reported protein stability index. Input variant: I1D
Output line: 4.38

Input line: Return reported protein stability index. Input variant: S22I
Output line: 2.05

Input line: Return reported protein stability index. Input variant: K23E
Output line: 2.32

Input line: Return reported protein stability index. Input variant: R8W
Output line: 1.94

Input line: Return reported protein stability index. Input variant: M18V
Output line: 2.32

Input line: Return reported protein stability index. Input variant: R8F
Output line: 1.47

Input line: Return reported protein stability index. Input variant: N9S
Output line: 2.15

Input line: Return reported protein stability index. Input variant: A20S
Output line: 2.75

Input line: Return reported protein stability index. Input variant: G24M
Output line: 2.18

Input line: Return reported protein stability index. Input variant: I1V
Output line: 3.03

Input line: Return reported protein stability index. Input variant: K23A
Output line: 2.01

Input line: Return reported protein stability index. Input variant: V15T
Output line: 2.69

Input line: Return reported protein stability index. Input variant: A20H
Output line: 2.38

Input line: Return reported protein stability index. Input variant: A20N
Output line: 2.78

Input line: Return reported protein stability index. Input variant: A14H
Output line: 2.48

Input line: Return reported protein stability index. Input variant: G19N
Output line: 2.72

Input line: Return reported protein stability index. Input variant: R5D
Output line: 3.71

Input line: Return reported protein stability index. Input variant: L13V
Output line: 2.85

Input line: Return reported protein stability index. Input variant: I1C
Output line: 2.8

Input line: Return reported protein stability index. Input variant: F3E
Output line: 4.29

Input line: Return reported protein stability index. Input variant: S12F
Output line: 2.26

Input line: Return reported protein stability index. Input variant: R8K
Output line: 2.26

Input line: Return reported protein stability index. Input variant: M18W
Output line: 2.03

Input line: Return reported protein stability index. Input variant: I1P
Output line: 4.25

Input line: Return reported protein stability index. Input variant: Q10L
Output line: 2.2

Input line: Return reported protein stability index. Input variant: V15W
Output line: 2.25

Input line: Return reported protein stability index. Input variant: R5M
Output line: 2.81

Input line: Return reported protein stability index. Input variant: N9Q
Output line: 2.14

Input line: Return reported protein stability index. Input variant: D2C
Output line: 2.06

Input line: Return reported protein stability index. Input variant: V15F
Output line: 2.18

Input line: Return reported protein stability index. Input variant: G19Q
Output line: 2.96

Input line: Return reported protein stability index. Input variant: S12R
Output line: 2.52

Input line: Return reported protein stability index. Input variant: D2K
Output line: 1.42

Input line: Return reported protein stability index. Input variant: D2R
Output line: 2.03

Input line: Return reported protein stability index. Input variant: S16D
Output line: 2.48

Input line: Return reported protein stability index. Input variant: N9F
Output line: 2.66

Input line: Return reported protein stability index. Input variant: Q10F
Output line: 2.35

Input line: Return reported protein stability index. Input variant: I1E
Output line: 4

Input line: Return reported protein stability index. Input variant: R5H
Output line: 3.15

Input line: Return reported protein stability index. Input variant: D2V
Output line: 2.84

Input line: Return reported protein stability index. Input variant: G24F
Output line: 1.84

Input line: Return reported protein stability index. Input variant: M18Y
Output line: 2.04
